Every entry's value here was drawn from patent US20240002497A1.

# measurement_target: rhNav1.7α + β1-β2-β3 (rhesus monkey)
# test_method_notes: cell-based or functional assay
experimental_readout: Qpatch IC50 (nM)

Some entries whose results are on file:
# binder, experimental_readout, assay_result
records = [
    ("F010302383 (VHH) VHH: EVQLVESGGGVVQPGGSLRLSCAASGPVFNINRMAWYRQAPGKQRELVAYVTPTGDISYADSVKGRFTISRGGSKRVYLQMNSLRPEDTALYYCRALLQPSSYSGTRTYWGQGTLVTVSS", "Qpatch IC50", 3),
    ("F010300684 (VHH) VHH: EVQLVESGGGLVQPGGSLRLSCAASGPVFNWNSMAWYRRAPGKQRELVASSTPGGSTNYADSVKGRFTISRDNAKRVYLQMNSLTPEDTAVYYCRALLQPSIYDISRIYWGQGTLVTVSS", "Qpatch IC50", 212),
    ("F010300948 (VHH) VHH: EVQLVESGGGLVQPGGSLRLSCAASGPVFNINRMAWYRRAPGKQRELVASSTPGGSTNYADSVKGRFTISRDNAKRVYLQMNSLTPEDTAVYYCRWLLQPSIYDISRIYWGQGTLVTVSS", "Qpatch IC50", 58),
    ("69AVB (Fc fusion, also called F010301656-5GS-Fc; F10301656* (ISVD with human IgG1 Fc); not shown: 5GS linker; human IgG1 Fc) EVQLVESGGGLAQPGGSLRLSCAASGPVFNINRMAWYRRAPGKQRELVAYVTPTGDISYTDSVKGRFTISRDGSKRWSLQMNSLTPEDTAVYYCRALLQPDSYSNTRTYWGQGTLVTVSS", "Qpatch IC50", 8),
    ("F010300990 (VHH) VHH: EVQLVESGGGLVQPGGSLRLSCAASGPVFNINRMAWYRRAPGKQRELVAYSTPGGSTNYADSVKGRFTISRDNAKRVYLQMNSLTPEDTAVYYCNALLQPSIYDISRIYWGQGTLVTVSS", "Qpatch IC50", 101),
    ("F010300659 (VHH, also called F0103275B05(S27P, I28V, S50Y, N53P, G55W, S56D, T57W, N93R, A94W)-FLAG3 + HIS6) VHH: EVQLVESGGGLVQPGGSLRLSCAASGPVFNINSMAWYRRAPGKQRELVAYSTPGWDWNYADSVKGRFTISRDNAKRVYLQMNSLTPEDTAVYYCRWLLQPSIYDISRTYWGQGTLVTVSS", "Qpatch IC50", 199),
    ("F010300631 (VHH) VHH: EVQLVESGGGLVQPGGSLRLSCAASGPVFNINSMAWYRRAPGKQRELVAYSTPGGSTNYADSVKGRFTISRDNAKRVYLQMNSLTPEDTAVYYCRALLQPSIYDISRTYWGQGTLVTVSS", "Qpatch IC50", 173),
]

I = F010300880 (VHH) VHH: EVQLVESGGGLVQPGGSLRLSCAASGPVFNINRMAWYRRAPGKQRELVASSTPGGDTNYADSVKGRFTISRDNAKRVYLQMNSLTPEDTAVYYCRWLLQPSIYDISRTYWGQGTLVTVSS
II = F010300900 (VHH) VHH: EVQLVESGGGLVQPGGSLRLSCAASGPVFNINRMAWYRRAPGKQRELVASSTPGGDTNYADSVKGRFTISRDNAKRVYLQMNSLTPEDTAVYYCRWLLQPSIYDISRIYWGQGTLVTVSS
III = F010300477 (VHH) VHH: EVQLVESGGGLVQPGGSLRLSCAASGSIFNINSMAWYRRAPGKQRELVASSTNGGSTNYADSVKGRFTISRDNAKRVYLQMNSLTPEDTAVYYCNWLLQPSIYDISRTYWGQGTLVTVSS
Put the items in sequence by Qpatch IC50, from largest down. Write the labels, ordered according to the request.
III, I, II
(III: 1190 nM, I: 122 nM, II: 36 nM)
